Source: PubChem BioAssay AID2060898

# Test system: 616215-338-R-J1-PDC complex spheroid viability;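 note: spheroids exposed to agents for seven days before viability readout; 100% = DMSO vehicle control viability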
# protocol_text: Anticancer human tumor 616215-338-R-J1-PDC patient-derived colon adenocarcinoma cell line growth inhibition [RAS]
# measurement_parameters: second compound 0.01 µM; first compound 0.316 µM; hits give low values
Entries annotated with measured viability, T/C

compound	u	viability, T/C
CC1(O)CCCC1n1c(=O)c(C(F)F)cc2cnc(NC3CCN(S(C)(=O)=O)CC3)nc21 (stereo not given) + C=CC(=O)N1CCN(c2nc(OCC3CCCN3C)nc3c(F)c(-c4nc(N)cc(C)c4C(F)(F)F)c(Cl)cc23)C(C)C1	%	49.8
CC(=O)OC12COC1CC(O)C1(C)C(=O)C(O)C3=C(C)C(OC(=O)C(O)C(NC(=O)OC(C)(C)C)c4ccccc4)CC(O)(C(OC(=O)c4ccccc4)C21)C3(C)C (stereo not given) + C=CC(=O)N1CCN(c2nc(OCC3CCCN3C)nc3c(F)c(-c4nc(N)cc(C)c4C(F)(F)F)c(Cl)cc23)C(C)C1	%	17.5
CC(C)NCC(C(=O)N1CCN(c2ncnc3c2C(C)CC3O)CC1)c1ccc(Cl)cc1 (stereo not given) + C=CC(=O)N1CCN(c2nc(OCC3CCCN3C)nc3c(F)c(-c4nc(N)cc(C)c4C(F)(F)F)c(Cl)cc23)C(C)C1	%	102
C[C@@H](NC(=O)c1ncnc(N)c1Cl)c1ncc(C(=O)Nc2cc(C(F)(F)F)c(Cl)cn2)s1 + C=CC(=O)N1CCN(c2nc(OCC3CCCN3C)nc3c(F)c(-c4nc(N)cc(C)c4C(F)(F)F)c(Cl)cc23)C(C)C1	%	121
NC1c2ccccc2OC12CCN(c1cnc3c(N4CCCc5ncccc54)n[nH]c3n1)CC2 (stereo not given) + C=CC(=O)N1CCN(c2nc(OCC3CCCN3C)nc3c(F)c(-c4nc(N)cc(C)c4C(F)(F)F)c(Cl)cc23)C(C)C1	%	95.4
